Tested on: SNU-638
ASSAY_SUMMARY: Antiproliferative activity against human SNU638 cells after 72 hrs by sulforhodamine B assay
Type: functional, cell-based
MEASUREMENT_PARAMETERS: SNU-638, 72 h
IC50 less than 1000 nM is Criterion met; IC50 greater than or equal to 1000 nM is Criterion not met.

# SMILES_REPR, DISCRETE_LABEL
data = [
    ("COc1ncc(-c2ccc3ncnc(NCCN(C)C)c3c2)cc1NS(=O)(=O)c1ccc(F)cc1F", "Criterion met"),
    ("CCCCS(=O)(=O)Nc1cc(-c2ccc3ncnc(NCCN(C)C)c3c2)cnc1OC", "Criterion met"),
    ("COc1ncc(-c2ccc3ncnc(NCCN(C)C)c3c2)cc1NS(C)(=O)=O", "Criterion met"),
    ("CCCCS(=O)(=O)Nc1cc(-c2ccc3ncnc(NCCN4CCOCC4)c3c2)cnc1OC", "Criterion met"),
    ("COc1ncc(-c2ccc3ncnc(NCCN4CCOCC4)c3c2)cc1NS(=O)(=O)c1ccc(F)cc1F", "Criterion not met"),
    ("COc1ncc(-c2ccc3ncnc(NCCCN(C)C)c3c2)cc1NS(=O)(=O)c1ccc(F)cc1F", "Criterion not met"),
    ("CCCCS(=O)(=O)Nc1cc(-c2ccc3ncnc(NCCCN(C)C)c3c2)cnc1OC", "Criterion not met"),
    ("COc1ncc(-c2ccc3ncnc(NCCN(C)C)c3c2)cc1NS(=O)(=O)c1ccc(F)cc1", "Criterion not met"),
    ("COc1ncc(-c2ccc3ncnc(NCCCN4CCOCC4)c3c2)cc1NS(=O)(=O)c1ccc(F)cc1F", "Criterion not met"),
    ("COc1ncc(-c2ccc3ncnc(NCc4ccncc4)c3c2)cc1NS(=O)(=O)c1ccc(F)cc1F", "Criterion not met"),
    ("CCCCS(=O)(=O)Nc1cc(-c2ccc3ncnc(NCc4ccncc4)c3c2)cnc1OC", "Criterion not met"),
]

====

Test system: SK-HEP1
ASSAY_SUMMARY: Antiproliferative activity against human SKHEP1 cells after 72 hrs by sulforhodamine B assay
Type: functional, cell-based
MEASUREMENT_PARAMETERS: SK-HEP1, 72 h
MEASUREMENT_LABEL: IC50 (µM)

# SMILES_REPR, MEASURED_NUMBER
data = [
    ("COc1ncc(-c2ccc3ncnc(NCCN(C)C)c3c2)cc1NS(C)(=O)=O", 12.6),
    ("COc1ncc(-c2ccc3ncnc(NCCN(C)C)c3c2)cc1NS(=O)(=O)c1ccc(F)cc1", 9.5),
    ("CCCCS(=O)(=O)Nc1cc(-c2ccc3ncnc(NCCCN4CCOCC4)c3c2)cnc1OC", 1.14),
    ("COc1ncc(-c2ccc3ncnc(NCCCN(C)C)c3c2)cc1NS(=O)(=O)c1ccc(F)cc1F", 4.68),
    ("CCCCS(=O)(=O)Nc1cc(-c2ccc3ncnc(NCCCN(C)C)c3c2)cnc1OC", 0.86),
    ("COc1ncc(-c2ccc3ncnc(NCCN(C)C)c3c2)cc1NS(=O)(=O)c1ccc(F)cc1F", 4.72),
    ("COc1ncc(-c2ccc3ncnc(NCCN4CCOCC4)c3c2)cc1NS(=O)(=O)c1ccc(F)cc1F", 0.84),
    ("CCCCS(=O)(=O)Nc1cc(-c2ccc3ncnc(NCCN(C)C)c3c2)cnc1OC", 0.28),
    ("CCCCS(=O)(=O)Nc1cc(-c2ccc3ncnc(NCc4ccncc4)c3c2)cnc1OC", 8.98),
    ("CCCCS(=O)(=O)Nc1cc(-c2ccc3ncnc(NCCN4CCOCC4)c3c2)cnc1OC", 0.44),
    ("COc1ncc(-c2ccc3ncnc(NCc4ccncc4)c3c2)cc1NS(=O)(=O)c1ccc(F)cc1F", 12.4),
    ("COc1ncc(-c2ccc3ncnc(NCCCN4CCOCC4)c3c2)cc1NS(=O)(=O)c1ccc(F)cc1F", 13.4),
]
